Target: recombinant 15-PGDH (Homo sapiens (Human), UniProt P15428)
Sequence (P15428 whole entry): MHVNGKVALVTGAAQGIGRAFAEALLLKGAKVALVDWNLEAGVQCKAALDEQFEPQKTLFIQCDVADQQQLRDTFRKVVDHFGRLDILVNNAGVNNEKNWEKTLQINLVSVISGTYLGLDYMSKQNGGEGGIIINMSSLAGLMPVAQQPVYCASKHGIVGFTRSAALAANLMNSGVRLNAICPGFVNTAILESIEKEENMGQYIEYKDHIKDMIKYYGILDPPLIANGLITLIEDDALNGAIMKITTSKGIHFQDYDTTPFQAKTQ
Test: inhibition of enzymatic activity of recombinant 15-PGDH, in vitro assay
Type: biochemical
Conditions: read-out: Enzyme Inhibitor IC50 (nM) at 1 nM 15-PGDH; 1 nM recombinant 15-PGDH
log10(IC50) reference
For clarity, the numbers are log10 values of IC50 expressed in nM.

CCCC[S@@+]([O-])c1sc2nc(-c3cccnc3)cc(-c3cnc(C)n3C)c2c1N [38A]; -0.12
CCCC[S@@+]([O-])c1sc2nc(-c3cnn(C)c3)cc(-c3ccccc3)c2c1N [46A]; -0.15
CCCC[S@@+]([O-])c1sc2nc(-c3cnc(N)nc3)cc(-c3ccc(F)cc3)c2c1N [61A]; -0.36
CCCC[S@@+]([O-])c1sc2nc(-c3cncnc3)cc(-c3cnc(C)n3C)c2c1N [39A]; -0.14
COCCC[S@@+]([O-])c1sc2nc(-c3cccnc3)cc(-c3cn(C)cn3)c2c1N [89A]; -0.11

Lab book: log10(IC50) of CCCC[S@@+]([O-])c1sc2nc(-c3cccnc3)cc(-c3cnc(C4CC4)n3C)c2c1N [52A] noted as -0.12

// field: log10(IC50); key: CCCC[S@+]([O-])c1sc2nc(-c3cncnc3)cc(-c3ccccc3)c2c1N [42A] ; value = 1.48

Reported log10(IC50) of CCCC[S@@+]([O-])c1sc2nc(-c3cnc(NC)nc3)cc(-c3ccccc3)c2c1N [60A] : -0.30

// CCCC[S@@+]([O-])c1sc2nc(-c3cccnc3)cc(-c3cncn3C)c2c1N [43A] : log10(IC50) value = -0.24

Entry CCCC[S@@+]([O-])c1sc2nc(-c3ccc(N)nc3)cc(-c3ccccc3)c2c1N [62A] — recorded log10(IC50) = -0.25

The molecule COCCC[S@+]([O-])c1sc2nc(-c3cccnc3)cc(-c3cn(C)cn3)c2c1N [89B] showed log10(IC50) equal to 1.87

Record CCCC[S@@+]([O-])c1sc2nc(-c3cncnc3)cc(-c3ccccc3)c2c1N [42B] , field log10(IC50): -0.23

// recorded log10(IC50) for CCCC[S@+]([O-])c1sc2nc(-c3cccnc3)cc(-c3ccccc3)c2c1N [41B] : 1.43

Record COCCC[S@@+]([O-])c1sc2nc(-c3cnc(N)nc3)cc(-c3ccccc3)c2c1N [65A] , field log10(IC50): -0.23

Sure, the documented log10(IC50) for CCCC[S@@+]([O-])c1sc2nc(-c3nccs3)cc(-c3cn(C)cn3)c2c1N [48A] is -0.14

Per the record, CCCC[S@@+]([O-])c1sc2nc(-c3cccnc3)cc(-c3ccccn3)c2c1N [58A] has log10(IC50) of -0.26

Value of log10(IC50) reported for the molecule COCCC[S@+]([O-])c1sc2nc(-c3cnc(N)nc3)cc(-c3ccccc3)c2c1N [65B] is 1.48

For reference, reported log10(IC50) for CCCC[S@+]([O-])c1sc2nc(-c3cnc(NC)nc3)cc(-c3ccccc3)c2c1N [60B] stands at 1.61

Reported log10(IC50) of CCCC[S@@+]([O-])c1sc2nc(-c3cccnc3)cc(-c3ccccc3)c2c1N [41A] : -0.14

Notebook: CCCC[S@+]([O-])c1sc2nc(-c3ccc(N)nc3)cc(-c3ccccc3)c2c1N [62B] , log10(IC50) read as 1.81

So, CCCC[S@+]([O-])c1sc2nc(-c3cccnc3)cc(-c3ccccn3)c2c1N [58B] ? Its log10(IC50) was -0.89

Item: CCCC[S@@+]([O-])c1sc2nc(-c3cccnc3)cc(-c3cccnc3)c2c1N [54A] | log10(IC50): -0.35

The recorded log10(IC50) for entry CCCC[S@+]([O-])c1sc2nc(-c3ccncn3)cc(-c3ccccc3)c2c1N [47B] equals 1.90
